Let's go through some MIC measurements on S. aureus 8325 (pEP2104) together.
metric-name: MIC

1) CC[C@@H](O)[C@@](C)(O)[C@@H]1OC(=O)[C@H](C)[C@@H](O[C@H]2CC(C)(OC)[C@@H](O)C(C)O2)[C@H](C)[C@H](O[C@@H]2OC(C)CC(N(C)Cc3ccc(Cl)cc3)C2O)[C@@]2(C)CC(C)C(O2)[C@@H]1C (stereo partly drawn) ... > 128 µg/mL
2) CC[C@@H](O)[C@@](C)(O)[C@@H]1OC(=O)[C@H](C)[C@@H](O[C@H]2CC(C)(OC)[C@@H](O)C(C)O2)[C@H](C)[C@@H](O[C@@H]2OC(C)CC(NC)C2O)[C@@]2(C)CC(C)C(O2)[C@@H]1C (stereo partly drawn) ... > 128 µg/mL
3) CC[C@H]1OC(=O)[C@H](C)[C@@H](O[C@H]2C[C@@](C)(OC)[C@@H](O)[C@H](C)O2)[C@H](C)[C@@H](O[C@@H]2O[C@H](C)C[C@H](N(C)C)[C@H]2O)[C@](C)(O)C[C@@H](C)C(=O)[C@H](C)[C@@H](O)[C@]1(C)O ... 64 µg/mL
4) CC[C@@H](O)[C@@](C)(O)[C@@H]1OC(=O)[C@H](C)[C@@H](O[C@H]2CC(C)(OC)[C@@H](O)C(C)O2)[C@H](C)[C@@H](O[C@@H]2OC(C)CC(N3CCOCC3)C2O)[C@]2(C)CC(C)C(O2)[C@@H]1C (stereo partly drawn) ... > 128 µg/mL
5) CC[C@@H](O)[C@@](C)(O)[C@@H]1OC(=O)[C@H](C)[C@@H](O[C@H]2CC(C)(OC)[C@@H](O)C(C)O2)[C@H](C)[C@@H](O[C@@H]2OC(C)CC(N(C)C)C2O)[C@@]2(C)CC(C)C(O2)[C@@H]1C (stereo partly drawn) ... > 128 µg/mL
6) CC[C@H]1OC(=O)O[C@@]1(C)[C@@H]1OC(=O)[C@H](C)C(=O)[C@H](C)[C@@H](O[C@@H]2OC(C)CC(N(C)Cc3ccc(Cl)cc3)C2O)[C@]2(C)CC(C)C(O2)[C@@H]1C (stereo partly drawn) ... > 64 µg/mL
